Answer each item with its documented LTS.
# System: P388
# Experiment: Long-term survivors (LTS) for 60 days at optimal dose of 3.0 mg/kg for antitumor activity against P388 leukemia cells in 6 mice.
# Assay type: functional, Mus musculus
Just the number, please.

Q: What value of LTS has been recorded for this entry: CCOP(=O)(OCC)[C@H](NC(=O)[C@@]1(O)[C@H](O)[C@]2(CC)C=CCN3CC[C@@]4(c5cc([C@@]6(C(=O)OC)C[C@@H]7CN(CCc8c6[nH]c6ccccc86)C[C@](O)(CC)C7)c(OC)cc5N(C)[C@@H]14)[C@@H]32)C(C)C
Result: 0

Q: Param item = CCCCCC(NC(=O)[C@@]1(O)[C@H](O)[C@]2(CC)C=CCN3CC[C@@]4(c5cc([C@@]6(C(=O)OC)C[C@@H]7CN(CCc8c6[nH]c6ccccc86)C[C@](O)(CC)C7)c(OC)cc5N(C)[C@@H]14)[C@@H]32)P(=O)(OCC)OCC (mixture of isomers) ; retrieve measured LTS.
Result: 0

Q: // query LTS value for entry CCOC(=O)CC(NC(=O)[C@@]1(O)[C@H](O)[C@]2(CC)C=CCN3CC[C@@]4(c5cc([C@@]6(C(=O)OC)C[C@@H]7CN(CCc8c6[nH]c6ccccc86)C[C@](O)(CC)C7)c(OC)cc5N(C)[C@@H]14)[C@@H]32)P(=O)(OCC)OCC (mixture of isomers)
Result: 0

Q: Could you tell me which LTS is on file for CCOP(=O)(CNC(=O)[C@@]1(O)[C@H](O)[C@]2(CC)C=CCN3CC[C@@]4(c5cc([C@@]6(C(=O)OC)C[C@@H]7CN(CCc8c6[nH]c6ccccc86)C[C@](O)(CC)C7)c(OC)cc5N(C)[C@@H]14)[C@@H]32)OCC ?
Result: 1

* * *

# Target Or System: Tubulin
# Experiment: The compound tested for the inhibition of tubulin polymerization.
Give pIC50 for every item shown.
Remember, pIC50 is on a log scale: it is -log10 of the molar concentration.

Q: Give the reported pIC50 for CCOP(=O)(CNC(=O)[C@@]1(O)[C@H](O)[C@]2(CC)C=CCN3CC[C@@]4(c5cc([C@@]6(C(=O)OC)C[C@@H]7CN(CCc8c6[nH]c6ccccc86)C[C@](O)(CC)C7)c(OC)cc5N(C)[C@@H]14)[C@@H]32)OCC (system: Tubulin).
Result: 6.52

Q: Provide the documented pIC50 with Tubulin as the system for CCOP(=O)(OCC)[C@@H](Cc1c[nH]c2ccccc12)NC(=O)[C@@]1(O)[C@H](O)[C@]2(CC)C=CCN3CC[C@@]4(c5cc([C@@]6(C(=O)OC)C[C@@H]7CN(CCc8c6[nH]c6ccccc86)C[C@](O)(CC)C7)c(OC)cc5N(C)[C@@H]14)[C@@H]32
Result: 7.00

Q: Give the reported pIC50 for CCOP(=O)(OCC)[C@@H](C)NC(=O)[C@@]1(O)[C@H](O)[C@]2(CC)C=CCN3CC[C@@]4(c5cc([C@@]6(C(=O)OC)C[C@@H]7CN(CCc8c6[nH]c6ccccc86)C[C@](O)(CC)C7)c(OC)cc5N(C)[C@@H]14)[C@@H]32 (system: Tubulin).
Result: 7.10

Q: Notebook: pull reported pIC50 for Tubulin, entry CCOP(=O)(OCC)C(C)NC(=O)[C@@]1(O)[C@H](O)[C@]2(CC)C=CCN3CC[C@@]4(c5cc([C@@]6(C(=O)OC)C[C@@H]7CN(CCc8c6[nH]c6ccccc86)C[C@](O)(CC)C7)c(OC)cc5N(C)[C@@H]14)[C@@H]32 (mixture of isomers)
Result: 7.00

Q: Tubulin / pIC50 / CCOP(=O)(OCC)[C@H](C)NC(=O)[C@@]1(O)[C@H](O)[C@]2(CC)C=CCN3CC[C@@]4(c5cc([C@@]6(C(=O)OC)C[C@@H]7CN(CCc8c6[nH]c6ccccc86)C[C@](O)(CC)C7)c(OC)cc5N(C)[C@@H]14)[C@@H]32 : value?
Result: 6.70

Q: Notebook: pull reported pIC50 for Tubulin, entry CCCCCC(NC(=O)[C@@]1(O)[C@H](O)[C@]2(CC)C=CCN3CC[C@@]4(c5cc([C@@]6(C(=O)OC)C[C@@H]7CN(CCc8c6[nH]c6ccccc86)C[C@](O)(CC)C7)c(OC)cc5N(C)[C@@H]14)[C@@H]32)P(=O)(OCC)OCC (mixture of isomers)
Result: 7.70

Q: Record lookup: for Tubulin, what pIC50 belongs to CCOC(=O)CC(NC(=O)[C@@]1(O)[C@H](O)[C@]2(CC)C=CCN3CC[C@@]4(c5cc([C@@]6(C(=O)OC)C[C@@H]7CN(CCc8c6[nH]c6ccccc86)C[C@](O)(CC)C7)c(OC)cc5N(C)[C@@H]14)[C@@H]32)P(=O)(OCC)OCC (mixture of isomers) ?
Result: 6.52

Q: Which pIC50 is reported with Tubulin for this entry: CCOC(=O)C(Cc1c[nH]c2ccccc12)NC(=O)[C@@]1(O)[C@H](O)[C@]2(CC)C=CCN3CC[C@@]4(c5cc([C@@]6(C(=O)OC)C[C@@H]7CN(CCc8c6[nH]c6ccccc86)C[C@](O)(CC)C7)c(OC)cc5N(C)[C@@H]14)[C@@H]32 (stereo not given in full) ?
Result: 6.70

Q: Enter reported pIC50 observed with Tubulin for CCOP(=O)(OCC)C(Cc1ccccc1)NC(=O)[C@@]1(O)[C@H](O)[C@]2(CC)C=CCN3CC[C@@]4(c5cc([C@@]6(C(=O)OC)C[C@@H]7CN(CCc8c6[nH]c6ccccc86)C[C@](O)(CC)C7)c(OC)cc5N(C)[C@@H]14)[C@@H]32 (mixture of isomers)
Result: 7.15

Q: Test system Tubulin; read-out pIC50; what value for CCOP(=O)(OCC)[C@@H](NC(=O)[C@@]1(O)[C@H](O)[C@]2(CC)C=CCN3CC[C@@]4(c5cc([C@@]6(C(=O)OC)C[C@@H]7CN(CCc8c6[nH]c6ccccc86)C[C@](O)(CC)C7)c(OC)cc5N(C)[C@@H]14)[C@@H]32)C(C)C ?
Result: 6.40

Q: Hi! What's the reported pIC50 for CCOP(=O)(OCC)[C@H](NC(=O)[C@@]1(O)[C@H](O)[C@]2(CC)C=CCN3CC[C@@]4(c5cc([C@@]6(C(=O)OC)C[C@@H]7CN(CCc8c6[nH]c6ccccc86)C[C@](O)(CC)C7)c(OC)cc5N(C)[C@@H]14)[C@@H]32)C(C)C on Tubulin?
Result: 6.10

Q: Field: pIC50 (Tubulin). Entry: C=CCC(NC(=O)[C@@]1(O)[C@H](O)[C@]2(CC)C=CCN3CC[C@@]4(c5cc([C@@]6(C(=O)OC)C[C@@H]7CN(CCc8c6[nH]c6ccccc86)C[C@](O)(CC)C7)c(OC)cc5N(C)[C@@H]14)[C@@H]32)P(=O)(OCC)OCC (stereo not given in full)
Result: 6.52

Q: Fill in the recorded pIC50 for this compound, with Tubulin as test system: CCOP(=O)(OCC)C(NC(=O)[C@@]1(O)[C@H](O)[C@]2(CC)C=CCN3CC[C@@]4(c5cc([C@@]6(C(=O)OC)C[C@@H]7CN(CCc8c6[nH]c6ccccc86)C[C@](O)(CC)C7)c(OC)cc5N(C)[C@@H]14)[C@@H]32)C(C)C (mixture of isomers)
Result: 6.52

Q: What pIC50 appears in the records for this compound with Tubulin? CC[C@]1(O)C[C@H]2CN(CCc3c([nH]c4ccccc34)[C@@](C(=O)OC)(c3cc4c(cc3OC)N(C=O)[C@H]3[C@@](O)(C(=O)OC)[C@H](OC(C)=O)[C@]5(CC)C=CCN6CC[C@]43[C@@H]65)C2)C1
Result: 6.30

Q: # get_value(readout= pIC50, system= Tubulin) for CCOP(=O)(OCC)[C@H](Cc1c[nH]c2ccccc12)NC(=O)[C@@]1(O)[C@H](O)[C@]2(CC)C=CCN3CC[C@@]4(c5cc([C@@]6(C(=O)OC)C[C@@H]7CN(CCc8c6[nH]c6ccccc86)C[C@](O)(CC)C7)c(OC)cc5N(C)[C@@H]14)[C@@H]32
Result: 7.00
